Target: EcSSB (Escherichia coli, UniProt P0AGE0 1-178)
Sequence (P0AGE0 whole entry): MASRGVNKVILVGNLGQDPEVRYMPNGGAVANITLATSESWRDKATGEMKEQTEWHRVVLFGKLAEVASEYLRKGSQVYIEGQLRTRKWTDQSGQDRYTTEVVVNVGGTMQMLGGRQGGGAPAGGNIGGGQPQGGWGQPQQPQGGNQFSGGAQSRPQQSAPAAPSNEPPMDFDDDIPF
Assay: MST
Metric Name: pKd
Worth noting: pKd values are minus log10 of concentrations stated in mol/L.

What value of pKd has been reported for the following binder? TTTTTTTTTTTTTTTTTTTTTTTTTTTTTTTTTTT (ssDNA) [Cy5-dT35] 8.91
